Source: paper PMC9564337

test: in vivo; conditions: female, NMRI nude (nu/nu), mouse, total radioactivity, Uptake (%ID/g) femur
Reported Metric: tissue uptake at 25 min

Q: Please report the recorded tissue uptake at 25 min for CC[C@H](C)[C@H](NC(=O)[C@@H](NC(=O)[C@@H]1CCCN1C(=O)[C@H](CCCNC(=N)N)NC(=O)[C@H](CCCNC(N)=NC(=O)NCCCCNC(=O)CN1CCN(CC(=O)O)CCN(CC(=O)O)CCN(CC(=O)O)CC1)NC)C(C)(C)c1ccc(O)cc1)C(=O)N[C@@H](CC(C)C)C(=O)O [[^68Ga]56, metal not drawn] .
Result: 0.78 %ID/g

----------
assay: in vivo; details: female, NMRI nude (nu/nu), mouse, total radioactivity, Uptake (%ID/g) brain
Reported Metric: tissue uptake at 0.75 h (%ID/g)
One number for each entry, in %ID/g.

Q: Please report the recorded tissue uptake at 0.75 h for CC[C@H](C)[C@H](NC(=O)[C@@H](NC(=O)[C@@H]1CCCN1C(=O)[C@H](CCCNC(=N)N)NC(=O)[C@H](CCCNC(N)=NC(=O)NCCCCNC(=O)CN1CCN(CC(=O)O)CCN(CC(=O)O)CCN(CC(=O)O)CC1)NC)C(C)(C)c1ccc(O)cc1)C(=O)N[C@@H](CC(C)C)C(=O)O [[^68Ga]56, metal not drawn] .
Result: 0.061

----------
assay: in vivo; conditions: female, NMRI nude (nu/nu), mouse, total radioactivity, Uptake (%ID/g) brain
Reported Metric: tissue uptake at 25 min
A complete answer gives the number followed by the unit.

Q: Please report the recorded tissue uptake at 25 min for CC[C@H](C)[C@H](NC(=O)[C@@H](NC(=O)[C@@H]1CCCN1C(=O)[C@H](CCCNC(=N)N)NC(=O)[C@H](CCCNC(N)=NC(=O)NCCCCNC(=O)CN1CCN(CC(=O)O)CCN(CC(=O)O)CCN(CC(=O)O)CC1)NC)C(C)(C)c1ccc(O)cc1)C(=O)N[C@@H](CC(C)C)C(=O)O [[^68Ga]56, metal not drawn] .
Result: 0.13 %ID/g

----------
biological target: hNTS1R (Homo sapiens, UniProt P30989); construct: intact HT-29 colon carcinoma cells expressing the hNTS1R; host or cells: HT-29 human colon carcinoma cells; assay: radioligand competition binding with [3H]UR-MK300 at intact HT-29 cells; conditions: [3H]UR-MK300 c = 1 nM, HT-29 cells, 23 °C; read-out: Ki [nM] NTS1R (converted)
Sequence (P30989 whole entry): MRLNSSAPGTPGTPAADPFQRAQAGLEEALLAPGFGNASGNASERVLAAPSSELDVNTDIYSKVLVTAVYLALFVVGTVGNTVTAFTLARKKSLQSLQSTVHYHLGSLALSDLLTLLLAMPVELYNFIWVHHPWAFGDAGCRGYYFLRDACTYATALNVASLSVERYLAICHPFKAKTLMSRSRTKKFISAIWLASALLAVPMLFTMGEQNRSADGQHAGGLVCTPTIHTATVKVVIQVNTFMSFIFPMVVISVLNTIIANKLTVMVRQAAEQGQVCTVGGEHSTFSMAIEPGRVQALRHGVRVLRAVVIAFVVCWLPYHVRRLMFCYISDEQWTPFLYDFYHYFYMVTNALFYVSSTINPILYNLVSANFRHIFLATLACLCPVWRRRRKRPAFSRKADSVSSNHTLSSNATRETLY
Field: log10 Ki. Provide a value for each of the compounds that follow.
# values: log10(Ki), units nM

Below: 4 compounds and their reported log10 Ki.
* CN[C@@H](CCCNC(N)=NC(=O)NCCOCCOCCNC(=O)CN1CCN(CC(=O)O)CCN(CC(=O)O)CCN(CC(=O)O)CC1)C(=O)N[C@@H](CCCNC(=N)N)C(=O)N1CCC[C@H]1C(=O)N[C@@H](Cc1ccc(O)cc1)C(=O)N[C@H](C(=O)N[C@@H](CC(C)C)C(=O)O)C(C)(C)C | 0.88
* CN[C@@H](CCCNC(N)=NC(=O)NCCCCNC(=O)CN1CCN(CC(=O)O)CCN(CC(=O)O)CCN(CC(=O)O)CC1)C(=O)N[C@@H](CCCNC(=N)N)C(=O)N1CCC[C@H]1C(=O)N[C@H](C(=O)N[C@H](C(=O)N[C@@H](CC(C)C)C(=O)O)C(C)(C)C)C(C)(C)c1ccc(O)cc1 | 1.32
* CN[C@@H](CCCNC(=N)N)C(=O)N[C@@H](CCCNC(=N)NC(=O)NCCCCNC(=O)CN1CCN(CC(=O)O)CCN(CC(=O)O)CCN(CC(=O)O)CC1)C(=O)N1CCC[C@H]1C(=O)N[C@@H](Cc1ccc(O)cc1)C(=O)N[C@H](C(=O)N[C@@H](CC(C)C)C(=O)O)C(C)(C)C | 1.45
* CN[C@@H](CCCNC(=N)NC(=O)NCCCCNC(=O)CN1CCN(CC(=O)O)CCN(CC(=O)O)CCN(CC(=O)O)CC1)C(=O)N[C@@H](CCCNC(=N)N)C(=O)N1CCC[C@H]1C(=O)N[C@H](C(=O)N[C@H](C(=O)N[C@@H](CC(C)C)C(=O)O)C(C)(C)C)C(C)(C)c1ccc(O)cc1 | 1.93

Could you now consider this next compound?
Q: Please report the recorded log10 Ki for CN[C@@H](CCCNC(=N)N)C(=O)N[C@@H](CCCNC(=N)N)C(=O)N1CCC[C@H]1C(=O)N[C@@H](Cc1ccc(O)cc1)C(=O)N[C@H](C(=O)N[C@@H](CC(C)C)C(=O)O)C1CCC1 .
Result: 0.04

----------
molecular target: hNTS2R (Homo sapiens); assay: radioligand competition binding with [3H]UR-MK300 at intact HEK293T-hNTS2R cells; settings: [3H]UR-MK300 c = 10 nM, read-out: Ki [nM] NTS2R (converted)
Sequence (O95665 whole entry): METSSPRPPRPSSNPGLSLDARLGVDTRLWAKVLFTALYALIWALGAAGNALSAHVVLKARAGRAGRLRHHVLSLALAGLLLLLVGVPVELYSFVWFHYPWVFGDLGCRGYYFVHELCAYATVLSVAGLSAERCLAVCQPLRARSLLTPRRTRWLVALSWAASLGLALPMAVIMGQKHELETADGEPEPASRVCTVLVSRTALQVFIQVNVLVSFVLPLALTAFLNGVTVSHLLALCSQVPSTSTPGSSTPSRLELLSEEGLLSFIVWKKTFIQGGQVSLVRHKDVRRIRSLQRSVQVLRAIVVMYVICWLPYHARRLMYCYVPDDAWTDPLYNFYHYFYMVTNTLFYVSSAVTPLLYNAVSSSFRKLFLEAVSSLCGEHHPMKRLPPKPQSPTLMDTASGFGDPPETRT
Reported Metric: Ki (nM)
Give bare numbers, in nM.

Below: 3 compounds and their reported Ki.
* CC(C)C[C@H](NC(=O)[C@@H](NC(=O)[C@H](Cc1ccc(O)cc1)NC(=O)[C@@H]1CCCN1C(=O)[C@H](CCCNC(=N)NC(=O)NCCCCNC(=O)CN1CCN(CC(=O)O)CCN(CC(=O)O)CCN(CC(=O)O)CC1)N(C)C(=O)[C@@H](N)CCCNC(=N)N)C(C)(C)C)C(=O)O | 230
* CC(C)C[C@H](NC(=O)[C@@H](NC(=O)[C@H](Cc1ccc(O)cc1)NC(=O)[C@@H]1CCCN1C(=O)[C@H](CCCNC(N)=NC(=O)NCCCCNC(=O)CN1CCN(CC(=O)O)CCN(CC(=O)O)CCN(CC(=O)O)CC1)N(C)C(=O)[C@@H](N)CCCNC(=N)N)C(C)(C)C)C(=O)O | 88
* CC(C)C[C@H](NC(=O)[C@@H](NC(=O)[C@H](Cc1ccc(O)cc1)NC(=O)[C@@H]1CCCN1C(=O)[C@H](CCCNC(=N)NC(=O)NCCCCN)N(C)C(=O)[C@@H](N)CCCNC(=N)N)C(C)(C)C)C(=O)O | 27

Q: Please report the recorded Ki for CN[C@@H](CCCNC(N)=NC(=O)NCCCCN)C(=O)N[C@@H](CCCNC(=N)N)C(=O)N1CCC[C@H]1C(=O)N[C@@H](Cc1ccc(O)cc1)C(=O)N[C@H](C(=O)N[C@@H](CC(C)C)C(=O)O)C(C)(C)C .
Result: 19

----------
test: in vitro; format: in vitro ADME; conditions: human, plasma, pH 7.4, % Intact Peptide in Plasma after 1 h
Reported Metric: remaining at 1 h, 100 µM

Below: 2 compounds and their reported remaining at 1 h, 100 µM.
- CN[C@@H](CCCNC(=N)N)C(=O)N[C@@H](CCCNC(=N)NC(=O)NCCCCN)C(=O)N1CCC[C@H]1C(=O)N[C@@H](Cc1ccc(O)cc1)C(=O)N[C@H](C(=O)N[C@@H](CC(C)C)C(=O)O)C(C)(C)C: > 99%
- CN[C@@H](CCCNC(N)=NC(=O)NCCCCNC(=O)CN1CCN(CC(=O)O)CCN(CC(=O)O)CCN(CC(=O)O)CC1)C(=O)N[C@@H](CCCNC(=N)N)C(=O)N1CCC[C@H]1C(=O)N[C@H](C(=O)N[C@H](C(=O)N[C@@H](CC(C)C)C(=O)O)C(C)(C)C)C(C)(C)c1ccc(O)cc1: > 99%

Could you now consider this next compound?
Q: Please report the recorded remaining at 1 h, 100 µM for CC(C)C[C@H](NC(=O)[C@@H](NC(=O)[C@H](Cc1ccc(O)cc1)NC(=O)[C@@H]1CCCN1C(=O)[C@H](CCCNC(=N)NC(=O)NCCCCN)N(C)C(=O)[C@@H](N)CCCNC(=N)N)C(C)(C)C)C(=O)O .
Result: > 99%

----------
Field: Ki. Provide a value for each of the compounds that follow.
target: hNTS1R (Homo sapiens); construct: intact HT-29 colon carcinoma cells expressing the hNTS1R; host or cells: HT-29 human colon carcinoma cells; experiment: radioligand competition binding with [3H]UR-MK300 at intact HT-29 cells; conditions: [3H]UR-MK300 c = 1 nM, HT-29 cells, 23 °C; read-out: pKi ± SD NTS1R (converted)
Residues, ends and D or L forms follow the SMILES beside them.

- CCC(CC)(NC(=O)[C@H](Cc1ccc(O)cc1)NC(=O)[C@@H]1CCCN1C(=O)[C@H](CCCNC(=N)N)NC(=O)[C@H](CCCNC(=N)N)NC)C(=O)N[C@@H](CC(C)C)C(=O)O [Compound 39]: > 1 µM

Batch request: Ki per item, same order as input.
1. CC[C@](C)(NC(=O)[C@H](Cc1ccc(O)cc1)NC(=O)[C@@H]1CCCN1C(=O)[C@H](CCCNC(=N)N)NC(=O)[C@H](CCCNC(=N)N)NC)C(=O)N[C@@H](CC(C)C)C(=O)O [Compound 45]
2. CN[C@@H](CCCNC(=N)N)C(=O)N[C@@H](CCCNC(=N)N)C(=O)N1CCC[C@H]1C(=O)N[C@@H](Cc1ccc(O)cc1)C(=O)N[C@@](C)(CC(C)C)C(=O)N[C@@H](CC(C)C)C(=O)O [Compound 44] (HELM PEPTIDE1{[meR].R.P.Y.[CC(C)C[C@](C)(N[*:1])C(=O)[*:2]].L}$$$$V2.0)

Result:
["> 1 µM", "> 1 µM"]
